B1: mRNA-splicing (parent)
chain: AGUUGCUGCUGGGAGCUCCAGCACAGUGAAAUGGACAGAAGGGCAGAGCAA

Variants of: B1
Test: exon inclusion enrichment index; higher = more inclusion; WT1 exon 5 minigene, HEK293
Let's look at some variants and their measured exon inclusion enrichment index.
Provide a numeric answer; units are not to be included.

G5A C6U U7A G8U C9A G38A A39C : 0.0573
G5A C6G U7G C9A G38U A39C : 0.000723
G5C C6G U7C U10C G15A : 2.71
G5C C6G U7C U10C G38A : 2.05
G5A C6G U7G C9A U27A G28A : 0.00156

Dear colleague, I am looking for the recorded exon inclusion enrichment index of the following variant: G5A U7C G8A U10C C22G 3.37

Lookup G5A U7C G8A U10C C16U 2.53

Lookup G5C C6U G8C C9U U10C C24G 2.4

Lookup G5C C6A U7C G8A U10A G33U 0.0519
